Value source: PubChem BioAssay (NCI)

Test system: SN12C renal
experimentalDetails: NCI tumour cell line growth inhibition, 48 h
valueType: TGI (µM)
Give a bare numeral; the unit µM is implied.

Qu. Annotate the compound C=C1C(=O)O[C@H]2[C@H]1CC/C(COC(=O)c1ccccc1)=C\CC[C@@]1(C)O[C@@H]21 with its measured TGI.
Ans. 3.26

Qu. Annotate the compound O=C(N/N=C\c1ccccc1)Nc1cccc2ccccc12 with its measured TGI.
Ans. 45.9

Qu. Annotate the compound COc1cc(/C=C(\OC(C)=O)c2ccc3c(c2)OCO3)cc(OC)c1OC with its measured TGI.
Ans. 88.1

Qu. Annotate the compound C=C1C(=O)O[C@H]2[C@H]1CC/C(Cn1cc(-c3cc(C)c(C)cc3C)nn1)=C\CC[C@@]1(C)O[C@@H]21 with its measured TGI.
Ans. 3.41

Qu. Annotate the compound Cc1c2c(cc3c(=O)ccn(CCN(C)C)c13)c(=O)ccn2CCN(C)C with its measured TGI.
Ans. 33.3
